Target: T1, human 5T4-His protein (human, UniProt Q13641 32-355)
T1 construct: also called recombinant 5T4 protein (human 5T4-his tag); human 5T4 protein; not shown: His tag
T1 sequence (looked up): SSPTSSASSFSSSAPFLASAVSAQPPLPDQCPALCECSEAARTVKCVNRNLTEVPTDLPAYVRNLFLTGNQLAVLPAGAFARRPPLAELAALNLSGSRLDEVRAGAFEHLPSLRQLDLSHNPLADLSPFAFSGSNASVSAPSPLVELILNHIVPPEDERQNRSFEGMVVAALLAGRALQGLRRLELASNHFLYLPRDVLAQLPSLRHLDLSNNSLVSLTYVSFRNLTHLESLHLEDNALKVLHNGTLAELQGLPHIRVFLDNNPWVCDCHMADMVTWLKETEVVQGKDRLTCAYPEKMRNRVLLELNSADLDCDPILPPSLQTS
Test: ELISA, coated antigen

- Binder: "367B8 chimeric antibody (antibody, V domains shown, chimeric mAb) VH: QVQLQQPGTELVKPGASVKLSCKASGYTFTSYWMHWVKQRPEQGLEWIGNINPSNGNTNYNENFKSQATLTVDKSSSTAYMQLSSLTSEDSAVYYCARGGWDFDYWGQGTTLTVSS VL: QVVLTQSPAIMSASPGEKVTMTCSASSSVRYIHWYQQRSGTSPKRWIYDTSKLTSGVPVRFSGSGSGTSYSLTISSMEAEDAATYYCQQWTSKPPWTFGGGTKLEIR"
  EC50, nM: 0.86
- Binder: "49C5 chimeric antibody (antibody, V domains shown, chimeric mAb) VH: EVQLQQSGPELVKPGASVKISCKASGYTFTDYYMNWVKQSHGKSLEWIGDINPYSGGATNNQKFKGKATLTVDKSSSTAYIELRSLTSEDSAVYFCARGSIYYDSTANYFDYWGQGTTLTVSS VL: DIQMTQSPASLSASVGETVTITCRASENIYSYLAWYQQKQGKSPQLLVYNAKSLTEGVPSRFSGSRSGTQFSLKINSLQPEDFGSYYCQHHYVTPWTFGGGTKLEIK"
  EC50, nM: 0.6
- Binder: "425G1 chimeric antibody (antibody, V domains shown, chimeric mAb) VH: EVQLQQSGAELVKPGASVKLSCTASGFNIKDTYMHWVKQRPEQGLEWIGRIDPANGHTIFASKFQGKATITADTSSNTAYMQLSSLTSGDTAVYYCGLFTMVVVPWYFDVWGTGTTVTVSS VL: DIVMTQSHKFMSTSVGDRVSITCKASQDVSTAVAWYQQKPGQSPKLLIYWASTRHTGVPDRFTGSGSGTDYTLTISSVQAEDLALYYCQQHYSSPLTFGAGTKLELK"
  EC50, nM: 0.29
- Binder: "95F10 chimeric antibody (antibody, V domains shown, chimeric mAb) VH: QVQLQQSGPEVVNPGASVKISCKASGYTFTDYYMNWVKQSRGKSLEWIGDINPNNGGTNYNQKFKDKATLTVDKSSNTAYMELRSLTSENSAVYYCAKEGPPGAMDYWGQGTSVTVSS VL: NIVMTQTPKFLLVSAGDRVTITCKASQSVSNHVAWYQQKPGQSPKLLIYYVSNRYIGVPDRFTGSGYGTDFTFTISTVQAEDLAVYFCQQVYSSPFTFGGGTRLEMK"
  EC50, nM: 0.24
- Binder: "267B5 chimeric antibody (antibody, V domains shown, chimeric mAb) VH: DVQFQESGPGLVKPSQSLSLTCSVTGYSITSSYYWNWIRQFPGDKLEWMGYISYDGSNNYNPSLKNRISITRDTSKKQFFLKLNSVTTEDTATYYCARSWDGGYAMDNWGQGTSVTVSS VL: SIVMTQTPKFLLVSAGDRVTITCKASQSVSNDVAWYQQKPGQSPKLLIYFASNRYTGVPDRFTGSGYGTVFTFTISTVQADDLAVYFCQQDYTSPWTFGGGTRLEIK"
  EC50, nM: 0.31
